Readings of IC50 for the listed compounds
subjectOfTest: GSK3α (GST-full length GSK3α) (Homo sapiens (Human), UniProt P49840)
Sequence (P49840 whole entry): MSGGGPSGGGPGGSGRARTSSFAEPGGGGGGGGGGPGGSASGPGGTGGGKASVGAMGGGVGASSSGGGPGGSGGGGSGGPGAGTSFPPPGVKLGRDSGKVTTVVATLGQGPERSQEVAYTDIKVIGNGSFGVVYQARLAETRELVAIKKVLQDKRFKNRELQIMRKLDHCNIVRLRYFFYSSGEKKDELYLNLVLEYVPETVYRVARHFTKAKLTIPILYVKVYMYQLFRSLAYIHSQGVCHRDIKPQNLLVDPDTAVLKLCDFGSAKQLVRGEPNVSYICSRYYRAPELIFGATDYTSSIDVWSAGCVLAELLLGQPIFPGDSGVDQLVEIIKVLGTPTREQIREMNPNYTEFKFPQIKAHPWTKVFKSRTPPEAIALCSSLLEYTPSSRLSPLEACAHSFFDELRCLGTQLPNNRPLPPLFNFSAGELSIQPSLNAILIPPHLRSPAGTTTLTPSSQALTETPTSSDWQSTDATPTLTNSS
testProtocol: GSK3α TR-FRET kinase assay
Assay type: biochemical
reportedConditions: 1 nM GSK3α, 4 μM ATP, 30 minute preincubation, Table 16; read-out: GSK3-A TR-FRET BIOCHEMICAL (TR-FRET); IC50
Experimental: TR-FRET Assay: The assay was performed in a white, 384 well, low volume, flat bottom plate (Grenier). After a 30 minute preincubation in assay buffer with the indicated concentration of compound, the kinase activity was initiated by the addition of the substrates. […] After 60 min at room temperature the plate was read on Envision plate reader using Ex: 340 nm, Em: 615 nm and […]. The normalized 665/615 Signal ratio versus log compound concentration was analyzed by XLFIT to yield IC50 values.

Worked examples follow.
- compound: "CC[C@@]1(c2cccc(-c3cc(C)nnc3C)c2)C2=C(CC(C)(C)NC2=O)Nc2n[nH]cc21 [Compound 949334]"
  IC50: "1000 to 5000 nM"
- compound: "CCC1(c2cccc(S(=O)(=O)C3CC3)c2)C2=C(CC(C)(C)CC2=O)Nc2n[nH]cc21 (stereo not shown) [Compound 909204]"
  IC50: "≤ 100 nM"
- compound: "CC1(C)CC(=O)C2=C(C1)Nc1n[nH]cc1C2(CO)CO [Compound 889570]"
  IC50: "> 5000 nM"

// next entry
Asked: For CCC1(c2cccc(-c3ccncc3)c2)C2=C(CC(C)(C)CC2=O)Nc2n[nH]c(C(F)(F)F)c21 (stereo not shown) [Compound 917292] , write its IC50.
Given back: 100 to 1000 nM

---

subjectOfTest: GSK3α (GST-full length GSK3α) (Homo sapiens (Human))
testProtocol: GSK3α TR-FRET kinase assay
Assay type: biochemical
reportedConditions: 1 nM GSK3α, 4 μM ATP, 30 minute preincubation; geometric mean; read-out: GSK3-A TR-FRET BIOCHEMICAL (TR-FRET); GMean; IC50
quantityKind: IC50

Known IC50 results, listed for orientation:
- compound: "CCC1(c2cccc(N3CCOCC3)c2)C2=C(CC(C)(C)NC2=O)Nc2n[nH]c(C)c21 (stereo not drawn) [Compound 947564]"
  IC50: "0.1 to 1 µM"
- compound: "CC[C@]1(c2ccccc2)C2=C(C[C@@](C)(COC)CC2=O)Nc2n[nH]cc21 [Compound 816873]"
  IC50: "0.1 to 1 µM"
- compound: "CCC1(c2cccc(-c3ccnc(C)c3)c2)C2=C(CC(C)(C)NC2=O)Nc2n[nH]c(C(F)(F)F)c21 (stereo not drawn) [Compound 948773]"
  IC50: "1 to 5 µM"
- compound: "CC[C@]1(c2ccccc2)C2=C(C[C@@]3(CCOC3)CC2=O)Nc2n[nH]cc21 [Compound 816881]"
  IC50: "0.1 to 1 µM"
- compound: "CC[C@@]1(c2cccc(C(F)F)c2)C2=C(CC(C)(C)NC2=O)Nc2n[nH]cc21 [Compound 949007]"
  IC50: "1 to 5 µM"

Asked: Look up IC50 of CC[C@]1(c2cccc(N3CCOCC3)c2)C2=C(CC(C)(C)NC2=O)Nc2n[nH]c(C(F)(F)F)c21 [Compound 949000] and report it.
Given back: 0.1 to 1 µM

Asked: State its IC50: CCC1(c2cccc(C(F)(F)F)c2)C2=C(CC3(CCCC3)CC2=O)Nc2n[nH]cc21 (stereo not drawn) [Compound 790617]
Given back: ≤ 0.1 µM

Asked: Identify the reported IC50 for the following entry. CCC1(c2ccccc2)C2=C(CC(C)(C)CC2=O)Nc2n[nH]c(C(F)F)c21 (stereo not drawn) [Compound 874510]
Given back: ≤ 0.1 µM

Asked: Tell me IC50 reported for CCC1(c2cccc(-c3ccnc4c3CCC4)c2)C2=C(CC(C)(C)NC2=O)Nc2n[nH]cc21 (stereo not drawn) [Compound 948308]
Given back: > 5 µM

Asked: Read the entry Cc1cccc2c1CCC21C2=C(CC(C)(C)CC2=O)Nc2n[nH]cc21 (stereo not drawn) [Compound 806603] and write its reported IC50.
Given back: ≤ 0.1 µM

Asked: Fill in IC50 for record CC[C@]1(c2cccc(C(C)C)c2)C2=C(CC(C)(C)CC2=O)Nc2n[nH]cc21 [Compound 810375]
Given back: 1 to 5 µM

Asked: Identify IC50 associated with the compound CCC1(c2cccc(-c3cn(C)nc3C)c2)C2=C(CC(C)(C)NC2=O)Nc2n[nH]c(Cl)c21 (stereo not drawn) [Compound 948768]
Given back: ≤ 0.1 µM

Asked: Fill in reported IC50 for this entry: CC[C@@]1(c2ccccc2)C2=C(C[C@@H](C)CC2=O)Nc2n[nH]cc21 [Compound 789010]
Given back: 0.1 to 1 µM

Asked: Quick one: give measured IC50 for CCC1(c2cccc(-c3ccncc3C)c2)C2=C(CC3(CCOCC3)NC2=O)Nc2n[nH]cc21 (stereo not drawn) [Compound 948367]
Given back: 0.1 to 1 µM

Asked: Dear colleague, please send me the reported IC50 for CC1(C)CC(=O)C2=C(C1)Nc1n[nH]cc1[C@]2(C)c1cccc(-c2ccccc2)c1 [Compound 801367] when you can.
Given back: ≤ 0.1 µM
